Test system: HOP-62 NSCLC
Assay: NCI tumour cell line growth inhibition, 48 h
Assay Metric: TGI

# annotated cases, reported TGI shown
Molecule	Tested Target	TGI
CCOC(=O)C(=[N+]=[N-])C(=O)C[N+]12CCN(CC1)CC2	HOP-62 NSCLC	> 100 µM
CC1CN(CCO)CC(C)O1 (stereo not drawn)	HOP-62 NSCLC	> 100 µM
CN(C)N=Nc1ccc([N+](=O)[O-])cc1C(N)=O	HOP-62 NSCLC	> 100 µM
Cc1ccc(S(=O)(=O)NC(=O)NC(Cc2c[nH]c3ccccc23)C(=O)O)cc1 (stereo not drawn)	HOP-62 NSCLC	> 100 µM
CC(C)(C)C#C[P+](c1ccccc1)(c1ccccc1)c1ccccc1	HOP-62 NSCLC	1.79 µM
CCCCN(CCCC)C(=Nc1ccccc1)N(CCCC)CCCC	HOP-62 NSCLC	20.5 µM
Cc1ncc(C(=O)Nc2ccc(CN3CCN(C)CC3)c(C(F)(F)F)c2)cc1C#Cc1c(N)ncc2ccc(C#N)cc12	HOP-62 NSCLC	11.2 µM
CC1CN=C(Nc2cccc(C(F)(F)F)c2)S1 (stereo not drawn)	HOP-62 NSCLC	> 100 µM
O=c1c2ccccc2oc2c1ccc1ncccc12	HOP-62 NSCLC	78.1 µM
CN(C)C1(C#N)CCC2(CC1)OCCO2	HOP-62 NSCLC	> 100 µM

I have 3 molecules here; please give me TGI for each one.
1. Cc1oc2nc1C(=O)NCc1nc(cs1)C(=O)N[C@H](C(C)C)c1nc(cs1)C(=O)N[C@H]2C
2. COc1c(O)c2ccccc2c2cc(O)ccc12
3. COc1c(-c2cc(C)c(Cl)c(=O)[nH]2)c(O)c(OC)c2occc12

> 100 µM
31.3 µM
> 100 µM

---

I'd appreciate it if you could supply TGI values for the items below.
Test system: LOX IMVI melanoma
Experiment: NCI tumour cell line growth inhibition, 48 h

# annotated cases, reported TGI shown
Compound	TGI
O=C(Nc1ccc(Cl)c(Cl)c1)Nc1ccc(Cl)c([N+](=O)[O-])c1	3.81 µM
[N-]=[N+]=Nc1ccc(S(=O)(=O)Oc2cc(OS(=O)(=O)c3ccc(N=[N+]=[N-])cc3)cc(OS(=O)(=O)c3ccc(N=[N+]=[N-])cc3)c2)cc1	> 100 µM
CN1CCC(O)C(CNC23CC4CC(CC(C4)C2)C3)C1 (configuration not stated)	> 100 µM
COC(c1ccsc1)C(C#N)(C#N)N=Cc1ccsc1 (configuration not stated)	22 µM
O=C(c1ccccc1)c1nnn(Cc2cccc(Cl)c2)c1C(=O)c1ccccc1	> 100 µM

I have 2 compounds here; please give me TGI for each one.
1. COc1cc[c]([Hg][Cl])cc1
2. CCOC(=O)c1cnc2ccc(Cl)cc2c1NCCCN(C)C

1: 2.74 µM; 2: 34.1 µM

---

Tested on: OVCAR-4 ovarian
Experiment: NCI tumour cell line growth inhibition, 48 h
I'd appreciate it if you could supply TGI values for the items below.

# annotated cases, reported TGI shown
Molecule	Tested Target	TGI
COc1ccc(C(=O)c2cc3c(N)c(C(=O)Nc4cccc(Cl)c4)sc3nc2C)cc1	OVCAR-4 ovarian	> 33.3 µM
CC(=O)N1N=C(c2c(O)ccc3ccccc23)CC1C(=O)c1ccco1 (stereo not drawn)	OVCAR-4 ovarian	> 100 µM
CC(C)c1ccc2c(c1)CCC1C(C)(C)[C@@H](O)CC[C@]21C (stereo partly drawn)	OVCAR-4 ovarian	> 100 µM
CN(NC(=O)/C(=C/c1ccc(O)cc1)NC(=O)c1ccccc1)c1ccnc2cc(Cl)ccc12	OVCAR-4 ovarian	33.6 µM
O=C(O)Cc1ccc(Oc2nc3ccccc3nc2-c2cccs2)cc1	OVCAR-4 ovarian	> 100 µM

I have 6 molecules here; please give me TGI for each one.
1. O=C(Nc1ccccc1)c1cc2c(cc1Cl)Sc1nccn1S2(=O)=O
2. O=C1CCC/C=C\C[C@H]2C=C(Cl)C(=O)/C2=C/C[C@H](CCCCC(F)(F)F)OC(=O)CCC/C=C\C[C@H]2C=C(Cl)C(=O)/C2=C/C[C@H](CCCCC(F)(F)F)O1
3. CSc1nc2ccccc2c(=O)n1/N=C1\C(=O)N(CN2CCOCC2)c2ccc(Cl)cc21
4. CCOC(=O)c1cnc2ccc(Cl)cc2c1NCCCN(C)C
5. CCS[C@H]1NC(=O)C1[C@H](C)O[Si](C)(C)C(C)(C)C (stereo partly drawn)
6. COc1ccc([C@H]2c3cc(OC)c(OC)cc3C=C(C=O)C2CO)cc1OC (stereo partly drawn)

1: 99.9 µM; 2: 3.93 µM; 3: > 100 µM; 4: > 100 µM; 5: > 100 µM; 6: > 100 µM

---

I'd appreciate it if you could supply GI50 values for the items below.
Test system: MDA-MB-435

# annotated cases, reported GI50 shown
Smiles Representation	Assay Metric	Measured Result
COc1cc[c]([Hg][Cl])cc1	GI50	1.61 µM
COc1ccc(/C=C2/SC(=Nc3c(C)nn(-c4ccccc4)c3N)NC2=O)cc1	GI50	1.27 µM

Continue with the next compound.
So, CCN(CC)CCCCCCCCNc1c2ccc(Cl)cc2nc2ccc(OC)cc12 ? Its GI50 was 1.87 µM

---

Tested on: OVCAR-8 ovarian
Test: NCI tumour cell line growth inhibition, 48 h
Assay Metric: TGI

# annotated cases, reported TGI shown
Compound	Tested Target	TGI
C=CCNC1=C2C[C@@H](C)C[C@@H](OC)C(OC(=O)CCCN(C)C)[C@H](C)/C=C(\C)[C@@H](OC(N)=O)[C@H](OC)/C=C\C=C(/C)C(=O)NC(=CC1=O)C2=O (stereo partly drawn)	OVCAR-8 ovarian	16 µM
CCOC(=O)c1cc2c(n1Cc1cccc(OC)c1)-c1oncc1CC2	OVCAR-8 ovarian	> 100 µM

So, COc1cc(C2c3cc4c(cc3C(O)C3CCC(=O)N23)OCO4)cc(OC)c1OC (stereo not drawn) ? Its TGI was > 100 µM

---

Test system: UACC-62 melanoma
Assay: NCI tumour cell line growth inhibition, 48 h
I'd appreciate it if you could supply TGI values for the items below.

# annotated cases, reported TGI shown
Molecule	TGI
CCOC(=O)C(=[N+]=[N-])C(=O)C[N+]12CCN(CC1)CC2	> 100 µM
CCN1CCC(C(=O)Nc2n[nH]c3nnc(-c4cccc(F)c4F)cc23)CC1	> 25 µM
COc1ccc(NC(=O)CC/C(CC(=O)c2ccco2)=N/Nc2ccc([N+](=O)[O-])cc2[N+](=O)[O-])cc1	> 100 µM

I have 7 molecules here; please give me TGI for each one.
1. Nn1c(Cc2ccc(Cl)cc2)n[nH]c1=O
2. COC1CCC(=C2C(=O)OC(C)(C)OC2=O)N1 (stereo not given)
3. O=C(O)CC(NC(=O)Nc1ccc([N+](=O)[O-])cc1)C(=O)Nc1ccc([N+](=O)[O-])cc1 (stereo not given)
4. CCc1cc(C(N)=O)ccc1-n1nc(C(C)C)c2c(-n3cnc(-c4cnn(C)c4)c3)ccnc21
5. COC(=O)C1Cc2c([nH]c3ccccc23)[C@H](CC(C)C)N1 (stereo not given in full)
6. COc1ccc([C@H]2c3cc(OC)c(OC)cc3C=C(C=O)C2CO)cc1OC (stereo not given in full)
7. CCCCC1(N=[N+]=[N-])C(=O)c2cccc3c2N(CCC3)C1=O (stereo not given)

["> 100 µM", "> 100 µM", "> 100 µM", "> 35.4 µM", "> 100 µM", "> 100 µM", "> 100 µM"]

---

System: M14 melanoma
Assay: NCI tumour cell line growth inhibition, 48 h
Assay Metric: TGI

# annotated cases, reported TGI shown
Compound	Measured Result
CC(=O)NC1(C)CCC(C(C)(C)NC(C)=O)CC1 (stereo unspecified)	> 100 µM
Cc1c(C(=O)/C=C/c2ccco2)[n+](=O)c2ccccc2n1[O-]	> 100 µM
COCCNC(=O)C1C(=O)N(CCOC)C(=O)/C1=N/N (stereo unspecified)	> 100 µM

I have 3 compounds here; please give me TGI for each one.
1. COC(=O)C(=O)C(C#N)c1cccc2ccccc12 (stereo unspecified)
2. O=c1c(Cl)nsnc1Cl
3. C=CCOc1ccc(C2c3c([nH][nH]c3=O)CC(O)(OCC)C2C(=O)OCC)cc1OC (stereo unspecified)

1. > 100 µM
2. 12.8 µM
3. > 100 µM

---

I'd appreciate it if you could supply TGI values for the items below.
Tested on: LOX IMVI melanoma
Experiment: NCI tumour cell line growth inhibition, 48 h
One number for each entry, in µM.

Smiles Representation	Assay Metric	Measured Result
COc1cc(-c2cc(-c3ccc(N(C)C)cc3)nc(N3CCC(O)CC3)c2C#N)cc(OC)c1OC	TGI	0.205

Continue with the next compound.
So, Cc1cc(Cl)n2c(nc3ccccc32)c1C#N ? Its TGI was 1.35

---

I'd appreciate it if you could supply TGI values for the items below.
Test system: TK-10 renal
Test: NCI tumour cell line growth inhibition, 48 h

# annotated cases, reported TGI shown
Molecule	Tested Target	TGI
[O-][n+]1onc2c3nn(-c4ccccc4)nc3ccc21	TK-10 renal	> 88.7 µM
C=CCNC1=C2C[C@@H](C)C[C@@H](OC)C(OC(=O)CCCN(C)C)[C@H](C)/C=C(\C)[C@@H](OC(N)=O)[C@H](OC)/C=C\C=C(/C)C(=O)NC(=CC1=O)C2=O (stereo partly specified)	TK-10 renal	25.1 µM

I have 5 molecules here; please give me TGI for each one.
1. CCOC(=O)C(C(=O)c1ccccc1-c1ccccc1C(=O)O)=P(c1ccccc1)(c1ccccc1)c1ccccc1
2. CCC12C=CCN3CC[C@]4(C(=C(C(=O)OC)[C@@H]1Nc1ncnc5c1ncn5C1OC(COC(C)=O)C(OC(C)=O)C1OC(C)=O)Nc1ccccc14)C32 (stereo partly specified)
3. O=S(=O)(c1cc(Cl)ccc1Cl)N1CCN(S(=O)(=O)c2cc(Cl)ccc2Cl)CC1
4. COC1OC(OC)C2C(c3c(C)cc(C)cc3C)=NOC12 (stereo unspecified)
5. C1=C[C@@H]2c3ccc4cnccc4c3NC[C@@H]2C1

> 100 µM
6.58 µM
> 100 µM
> 100 µM
> 100 µM

I have 5 molecules here; please give me TGI for each one.
1. O=C(CC(O)(c1ccccc1)c1ccc(Cl)cc1)NC(=O)c1ccccc1O (stereo unspecified)
2. O=C(Nc1nc2ncn(CCOC(=O)c3ccccc3)c2c(=O)[nH]1)c1ccccc1
3. CC(=O)Nc1ccc2c(C(=O)O)c(C)c(=O)[nH]c2n1
4. NNC(=O)CC(=O)Nc1ccc(Cl)cc1
5. CCc1cc(C(N)=O)ccc1-n1nc(C(C)C)c2c(-n3cnc(-c4cnn(C)c4)c3)ccnc21

1: 41.2 µM; 2: > 100 µM; 3: > 100 µM; 4: > 100 µM; 5: > 100 µM

I have 3 molecules here; please give me TGI for each one.
1. C=Nc1ccc([N+](=O)[O-])cc1
2. CC1CN(CCO)CC(C)O1 (stereo unspecified)
3. CCCCC/C=C1/CC(CO)(COC(=O)CC(C(C)C)C(C)C)OC1=O (stereo unspecified)

["> 100 µM", "> 100 µM", "32.5 µM"]

So, COC12C=C/C(=C(/C(=O)OCc3ccncn3)C(=O)CCCCCCCCC3(OC)C=C/C(=C(/C(=O)OCc4ccncn4)C(=O)CCCCCCCC1)O3)O2 ? Its TGI was 2.4 µM
